Experiment: Quantification of nifurtimox and metabolites in rat plasma after a single high dose (200 mg/kg)
Type: in vivo, Wistar rats
Conditions: male, Wistar, rat, plasma, po, 200 mg/kg; read-out: Cmax, male animals
Experimental: Blood cells and plasma were then separated by centrifugation, and the plasma was stored at ≤-15°C until required. For analysis, plasma samples were thawed at room temperature and homogenized by vortex mixing. […] The supernatant was analyzed using a 1290 Infinity LC system equipped with a diode array detector and an Orbitrap Q-Exactive Plus HRMS (Thermo Fisher Scientific, Bremen, Germany) with a heated electrospray ionization source. […]
Quick rule: Cmax of at least 0.3 µM means rule met, below that means rule not met.

Compound: CC1CS(=O)(=O)CCN1/N=C/C(CCC(=O)O)=N\O (stereo not shown) [M-2]
Group label: rule not met

Compound: CC1CS(=O)(=O)CCN1N (stereo not shown) [M-6]
Group label: rule met

Compound: CC1CS(=O)(=O)CCN1/N=C/C(=O)CCC(=O)O (stereo not shown) [M-3]
Group label: rule not met

Compound: CC1CS(=O)(=O)CCN1/N=C/C(=O)CCC#N (stereo not shown) [M-1]
Group label: rule met

Compound: CC1CS(=O)(=O)CCN1/N=C/c1ccc([N+](=O)[O-])o1 (stereo not shown) [Nifurtimox, reference compound]
Group label: rule met

Compound: CC1CS(=O)(=O)CCN1n1cc(SCC(N)C(=O)O)ccc1=O (stereo not shown) [M-4]
Group label: rule met

Compound: CC(=O)NC(CSc1ccc(=O)n(N2CCS(=O)(=O)CC2C)c1)C(=O)O (stereo not shown) [M-5]
Group label: rule met

====

Test: Quantification of nifurtimox and metabolites in human urine (LC-HRMS)
Assay type: in vivo
Conditions: mean of 6 fed patients with Chagas disease, single oral 120 mg nifurtimox
Readout: AE,urine(0–24h), fed patients

Compound: CC1CS(=O)(=O)CCN1/N=C/c1ccc([N+](=O)[O-])o1 (stereo not shown) [Nifurtimox, reference compound]
Readout: AE,urine(0–24h), fed patients
Recorded value: 0.07 % of dose

Compound: CC1CS(=O)(=O)CCN1n1cc(SCC(N)C(=O)O)ccc1=O (stereo not shown)
Readout: AE,urine(0–24h), fed patients
Recorded value: 12.3 % of dose

Compound: CC1CS(=O)(=O)CCN1/N=C/C(CCC(=O)O)=N\O (stereo not shown)
Readout: AE,urine(0–24h), fed patients
Recorded value: 2.4 % of dose

Compound: CC1CS(=O)(=O)CCN1N (stereo not shown)
Readout: AE,urine(0–24h), fed patients
Recorded value: 20.8 % of dose

Compound: CC1CS(=O)(=O)CCN1/N=C/C(=O)CCC(=O)O (stereo not shown)
Readout: AE,urine(0–24h), fed patients
Recorded value: 0.15 % of dose

Compound: CC(=O)NC(CSc1ccc(=O)n(N2CCS(=O)(=O)CC2C)c1)C(=O)O (stereo not shown)
Readout: AE,urine(0–24h), fed patients
Recorded value: 6.6 % of dose

Compound: CC1CS(=O)(=O)CCN1/N=C/C(=O)CCC#N (stereo not shown)
Readout: AE,urine(0–24h), fed patients
Recorded value: 2.0 % of dose

====

This listing pairs molecules with measured AUC(0-t).
Test: Quantification of nifurtimox and metabolites in rat plasma after a single high dose (200 mg/kg)
Format: in vivo, Wistar rats
Details: female, Wistar, rat, plasma, po, 200 mg/kg; read-out: AUC(0–24), female animals
Readout: AUC(0-t) (µM·h)

Molecule: CC1CS(=O)(=O)CCN1/N=C/c1ccc([N+](=O)[O-])o1 (stereo not shown) [Nifurtimox, reference compound]
Recorded value: 117
//
Molecule: CC(=O)NC(CSc1ccc(=O)n(N2CCS(=O)(=O)CC2C)c1)C(=O)O (stereo not shown)
Recorded value: 1.42
//
Molecule: CC1CS(=O)(=O)CCN1/N=C/C(CCC(=O)O)=N\O (stereo not shown)
Recorded value: 3.22
//
Molecule: CC1CS(=O)(=O)CCN1n1cc(SCC(N)C(=O)O)ccc1=O (stereo not shown)
Recorded value: 4.84
//
Molecule: CC1CS(=O)(=O)CCN1/N=C/C(=O)CCC(=O)O (stereo not shown)
Recorded value: 3.54
//
Molecule: CC1CS(=O)(=O)CCN1/N=C/C(=O)CCC#N (stereo not shown)
Recorded value: 36.7
//
Molecule: CC1CS(=O)(=O)CCN1N (stereo not shown)
Recorded value: 65.8
